Just for reference, ChEMBL document CHEMBL1949544 is where these values come from.

system: DLD-1; assay: Inhibition of proteasome activity in human DLD1 cells expressing 4-ubiquitin luciferase reporter protein assessed increase of luciferase signal at 1 uM after 7 hrs relative to control
fold change (FC) values for the molecules below.
Output spec: single numeric token, no unit.

[
  {
    "molecule": "C=C(C(=O)[C@H](O)[C@@H](C)[C@H]1[C@@H](OC(C)=O)C[C@@]2(C)[C@@H]3CC[C@H]4[C@H](C)C(=O)CC[C@@]45C[C@@]35CC[C@]12C)[C@@H](C)CO",
    "target.of.assay": "DLD-1",
    "fold change (FC)": 1.2
  }
]

## Task What does the record list as fold change (FC) for C=C(C(=O)C[C@@H](C)[C@H]1CC[C@@]2(C)[C@@H]3CC[C@H]4[C@](C)(C(=O)O[C@@H]5O[C@@H](C)[C@H](O)[C@@H](O)[C@H]5O)[C@@H](O)CC[C@@]45C[C@@]35CC[C@]12C)C(C)C ?
## Result 1.1

## Task Next entry: C=C1C(C)CO[C@@]12C[C@@H](C)[C@H]1[C@H](C[C@@]3(C)[C@@H]4CC[C@H]5[C@](C)(C(=O)O)[C@@H](O)CC[C@@]56C[C@@]46CC[C@]13C)O2 (stereo not given in full)
## Result 1.2

## Task Next entry: CC(C)=CC(=O)C[C@@H](C)[C@H]1CC[C@@]2(C)[C@@H]3CC[C@H]4[C@](C)(C(=O)O[C@@H]5O[C@@H](C)[C@H](O)[C@@H](O)[C@H]5O)[C@@H](O)CC[C@@]45C[C@@]35CC[C@]12C
## Result 1

## Task Next entry: C=C(C(=O)[C@H](OC(C)=O)[C@@H](C)[C@H]1[C@@H](OC(C)=O)C[C@@]2(C)[C@@H]3CC[C@H]4[C@H](C)C(=O)C=C[C@@]45C[C@@]35CC[C@]12C)[C@@H](C)CO
## Result 48

## Task Next entry: C=C(C(=O)[C@H](OC(C)=O)[C@@H](C)[C@H]1[C@@H](OC(C)=O)C[C@@]2(C)[C@@H]3CC[C@H]4[C@H](C)C(=O)C=C[C@@]45C[C@@]35CC[C@]12CO)[C@@H](C)CO
## Result 1.2

## Task Next entry: C=C(C(=O)C1(O)O[C@H]2C[C@@]3(C)[C@@H]4CC[C@H]5[C@H](C)C(=O)C=C[C@@]56C[C@@]46CC[C@]3(C)[C@H]2[C@@H]1C)[C@@H](C)CO (stereo not given in full)
## Result 0.9

## Task Next entry: CC(=O)O[C@H]1C[C@@]2(C)[C@@H]3CC[C@H]4[C@H](C)C(=O)C=C[C@@]45C[C@@]35CC[C@]2(C)[C@H]1[C@H](C)[C@@H](OC(C)=O)C(=O)C=C(C)C
## Result 1.1

## Task Next entry: CC(=O)O[C@H]1C[C@@]2(C)[C@@H]3CC[C@H]4[C@H](C)C(=O)C=C[C@@]45C[C@@]35CC[C@]2(C)[C@H]1[C@H](C)C=O
## Result 1.1

## Task Next entry: C=C(C(=O)[C@H](OC(C)=O)[C@@H](C)[C@H]1[C@@H](OC(C)=O)C[C@@]2(C)[C@@H]3CC[C@H]4[C@H](C)C(=O)C=C[C@@]45C[C@@]35CC[C@]12C)[C@@H](C)C=O
## Result 1

----------
system: DLD-1; assay: Inhibition of proteasome activity in human DLD1 cells expressing 4-ubiquitin luciferase reporter protein assessed increase of luciferase signal at 0.5 uM after 7 hrs relative to control
readout.type: fold change (FC)

[
  {
    "compound.structure.string": "C=C(C(=O)[C@H](OC(C)=O)[C@@H](C)[C@H]1[C@@H](OC(C)=O)C[C@@]2(C)[C@@H]3CC[C@H]4[C@H](C)C(=O)C=C[C@@]45C[C@@]35CC[C@]12C)[C@H](C)CO",
    "readout.type": "fold change (FC)",
    "result": 1
  },
  {
    "compound.structure.string": "C=C(C(=O)[C@H](OC(C)=O)[C@@H](C)[C@H]1[C@@H](OC(C)=O)C[C@@]2(C)[C@@H]3C[C@@H](O)[C@H]4[C@H](C)C(=O)C=C[C@@]45C[C@@]35CC[C@]12C)[C@@H](C)CO",
    "readout.type": "fold change (FC)",
    "result": 1.2
  },
  {
    "compound.structure.string": "C=C(C(=O)[C@H](OC(C)=O)[C@@H](C)[C@H]1[C@@H](OC(C)=O)C[C@@]2(C)[C@@H]3CC[C@H]4[C@H](C)C(=O)C=C[C@@]45C[C@@]35CC[C@]12C)[C@@H](C)CO",
    "readout.type": "fold change (FC)",
    "result": 2.1
  }
]

## Task What does the record list as fold change (FC) for C=C(C(=O)[C@H](O)[C@@H](C)[C@H]1[C@@H](OC(C)=O)C[C@@]2(C)[C@@H]3CC[C@H]4[C@H](C)C(=O)C=C[C@@]45C[C@@]35CC[C@]12C)[C@@H](C)CO ?
## Result 1.4

## Task Next entry: C=C(C(=O)[C@H](OC(C)=O)[C@@H](C)[C@H]1[C@@H](OC(C)=O)C[C@@]2(C)[C@@H]3CC[C@H]4[C@H](C)C(=O)C=C[C@]45C[C@]35CC[C@]12C)[C@@H](C)CO
## Result 1.4

----------
test system: DLD-1; assay: Inhibition of proteasome activity in human DLD1 cells expressing 4-ubiquitin luciferase reporter protein assessed increase of luciferase signal at 5 uM after 7 hrs relative to control
readout.type: fold change (FC)
Output spec: single numeric token, no unit.

[
  {
    "compound": "CC(C)=CC(=O)C[C@@H](C)[C@H]1CC[C@@]2(C)[C@@H]3CC[C@H]4[C@](C)(C(=O)O[C@@H]5O[C@@H](C)[C@H](O)[C@@H](O)[C@H]5O)[C@@H](O)CC[C@@]45C[C@@]35CC[C@]12C",
    "readout.type": "fold change (FC)",
    "number": 1
  },
  {
    "compound": "C=C(C(=O)C[C@@H](C)[C@H]1CC[C@@]2(C)[C@@H]3CC[C@H]4[C@](C)(C(=O)O[C@@H]5O[C@@H](C)[C@H](O)[C@@H](O)[C@H]5O)[C@@H](O)CC[C@@]45C[C@@]35CC[C@]12C)C(C)C",
    "readout.type": "fold change (FC)",
    "number": 1
  },
  {
    "compound": "C=C(C(=O)[C@H](OC(C)=O)[C@@H](C)[C@H]1[C@@H](OC(C)=O)C[C@@]2(C)[C@@H]3CC[C@H]4[C@H](C)C(=O)C=C[C@@]45C[C@@]35CC[C@]12C)[C@@H](C)COC(C)=O",
    "readout.type": "fold change (FC)",
    "number": 48
  },
  {
    "compound": "C=C(C(=O)[C@H](O)[C@@H](C)[C@H]1[C@@H](OC(C)=O)C[C@@]2(C)[C@@H]3CC[C@H]4[C@](C)(C(=O)O)[C@@H](O)CC[C@@]45C[C@@]35CC[C@]12C)C(C)C",
    "readout.type": "fold change (FC)",
    "number": 1.3
  },
  {
    "compound": "C=C(C(=O)[C@H](OC(C)=O)[C@@H](C)[C@H]1[C@@H](OC(C)=O)C[C@@]2(C)[C@@H]3CC[C@H]4[C@H](C)C(=O)C=C[C@@]45C[C@@]35CC[C@]12CO)[C@@H](C)CO",
    "readout.type": "fold change (FC)",
    "number": 12
  },
  {
    "compound": "C=C1C(C)CO[C@@]12C[C@@H](C)[C@H]1[C@H](C[C@@]3(C)[C@@H]4CC[C@H]5[C@](C)(C(=O)O)[C@@H](O)CC[C@@]56C[C@@]46CC[C@]13C)O2 (stereo not given in full)",
    "readout.type": "fold change (FC)",
    "number": 1.3
  },
  {
    "compound": "C=C(C(=O)[C@H](OC(C)=O)[C@@H](C)[C@H]1[C@@H](OC(C)=O)C[C@@]2(C)[C@@H]3CC[C@H]4[C@H](C)C(=O)C=C[C@]45C[C@]35CC[C@]12C)[C@@H](C)CO",
    "readout.type": "fold change (FC)",
    "number": 84
  },
  {
    "compound": "C=C(C(=O)[C@H](OC(C)=O)[C@@H](C)[C@H]1[C@@H](OC(C)=O)C[C@@]2(C)[C@@H]3CC[C@H]4[C@H](C)C(=O)C=C[C@@]45C[C@@]35CC[C@]12C)[C@@H](C)CO",
    "readout.type": "fold change (FC)",
    "number": 37
  }
]

## Task What does the record list as fold change (FC) for C=C(C(=O)[C@H](OC(C)=O)[C@@H](C)[C@H]1[C@@H](OC(C)=O)C[C@@]2(C)[C@@H]3CC[C@H]4[C@H](C)C(=O)C=C[C@@]45C[C@@]35CC[C@]12C)C(C)C ?
## Result 74

## Task Next entry: C=C(C(=O)[C@H](OC(C)=O)[C@@H](C)[C@H]1[C@@H](OC(C)=O)C[C@@]2(C)[C@@H]3CC[C@H]4[C@H](C)C(=O)C=C[C@@]45C[C@@]35CC[C@]12C)[C@@H](C)C=O
## Result 70

## Task Next entry: CC(=O)O[C@H]1C[C@@]2(C)[C@@H]3CC[C@H]4[C@H](C)C(=O)C=C[C@@]45C[C@@]35CC[C@]2(C)[C@H]1[C@H](C)C=O
## Result 1.3

## Task Next entry: CC(=O)O[C@H]1C[C@@]2(C)[C@@H]3CC[C@H]4[C@H](C)C(=O)C=C[C@@]45C[C@@]35CC[C@]2(C)[C@H]1[C@H](C)[C@@H](O)C(=O)C=C(C)C
## Result 5.2
